Biological target: pneumolysin (Ply) (Streptococcus pneumoniae serotype 2, UniProt Q04IN8)
Construct: made in house; host or cells: E. coli BL21(DE3)
Sequence (Q04IN8 whole entry): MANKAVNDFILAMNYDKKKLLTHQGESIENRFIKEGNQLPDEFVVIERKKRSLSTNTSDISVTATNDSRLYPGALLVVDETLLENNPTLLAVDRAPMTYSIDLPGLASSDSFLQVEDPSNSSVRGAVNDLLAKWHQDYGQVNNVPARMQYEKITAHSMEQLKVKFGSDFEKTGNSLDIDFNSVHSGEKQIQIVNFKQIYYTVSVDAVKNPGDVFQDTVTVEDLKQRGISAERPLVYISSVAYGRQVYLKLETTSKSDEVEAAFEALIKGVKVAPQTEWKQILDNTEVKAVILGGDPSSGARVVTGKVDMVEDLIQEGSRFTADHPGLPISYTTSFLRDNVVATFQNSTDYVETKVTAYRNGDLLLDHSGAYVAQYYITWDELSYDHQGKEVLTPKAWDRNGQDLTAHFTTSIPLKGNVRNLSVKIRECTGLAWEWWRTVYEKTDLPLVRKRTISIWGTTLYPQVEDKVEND
Experiment: Precipitation assay of pneumolysin-tannin interaction
Assay type: binding
Settings: 10 μM Ply, Na-acetate buffer pH 5.0, 25 °C, 30 min, absorbance 414 nm
ASSAY METRIC: Minimum Precipitating Concentration (µM)

MOLECULE: O=C(OC[C@H]1O[C@@H](OC(=O)c2cc(O)c(O)c(O)c2)[C@H](OC(=O)c2cc(O)c(O)c(O)c2)[C@@H](OC(=O)c2cc(O)c(O)c(O)c2)[C@@H]1OC(=O)c1cc(O)c(O)c(O)c1)c1cc(O)c(O)c(O)c1 [PGG, 1,2,3,4,6-penta-O-galloyl-β-D-glucose]
REPORTED VALUE: 14

###

Molecular target: pneumolysin (Ply) (Streptococcus pneumoniae serotype 2, UniProt Q04IN8)
Construct: made in house; host or cells: E. coli BL21(DE3)
Experiment: cell-based
Assay type: cell-based
Conditions: IC50 (screening with hemolysis assays), estimated from the inhibition curves, two-fold dilutions of tannins
Protocol: Native human erythrocytes were taken into EDTA tubes. The erythrocytes were washed three times with PBS (0.15 M NaCl, 2.7 mM KCl, 8.1 mM Na2HPO4 and 1.5 mM KH2PO4) by centrifugation at 700× g for 10 min. The purified erythrocytes were stored at +4 °C. […] The plates were centrifuged, and the supernatant was pipetted into flat-bottomed microtiter plates to measure the absorbance at 570 nm (VICTOR X4, PerkinElmer, Turku, Finland) of the released hemoglobin from lysed erythrocytes. […]
ASSAY METRIC: IC50

COMPOUND: O=C(OC1COC(=O)c2cc(O)c(O)c(O)c2-c2c(cc(O)c(O)c2O)C(=O)OC1C1OC(=O)c2cc(O)c(O)c(O)c2-c2c(O)c(O)c(O)c3c2C(=O)OC1C3O)c1cc(O)c(O)c(O)c1 (stereo not drawn) [Stachyurin]
REPORTED VALUE: > 100 nM

COMPOUND: O=C1OCC2OC(=O)c3cc(O)c(O)c(O)c3-c3c(O)c(O)c(O)c4c3C(=O)OC(C2OC(=O)c2cc(O)c(O)c(O)c2-c2c1cc(O)c(O)c2O)C1OC(=O)c2c-4c(O)c(O)c(O)c2C1O (stereo not drawn) [Vescalagin]
REPORTED VALUE: > 100 nM

COMPOUND: O=C1OC[C@H]2OC(O)[C@@H]3OC(=O)c4cc(O)c(O)c(O)c4-c4c(cc(O)c(O)c4O)C(=O)O[C@H]3[C@@H]2OC(=O)c2cc(O)c(O)c(O)c2-c2c1cc(O)c(O)c2O (stereo partly drawn) [Pedunculagin]
REPORTED VALUE: > 100 nM

All values here come from paper PMC7766327.
